PROTOCOL_DESCRIPTION: Oral bioavailability in Sprague-Dawley rat at 5 mg/kg administered via gavage
Format: ADME, organism-based
EXPERIMENTAL_SETUP: in vivo
// bioavailability lookup, one value per entry
PROPERTY: bioavailability (%)

compound="NC(=O)c1cccc([C@H]2C[C@H]3CC[C@@H](C2)N3CCN(CC2CCCCC2)C(=O)[C@@H](O)CO)c1.O=S(=O)(O)O [AXELOPRAN SULFATE]" uom=% value_measured=27
compound=NC(=O)c1cccc([C@H]2C[C@H]3CC[C@@H](C2)N3CCN(CC2CCCCC2)C(=O)CO)c1 uom=% value_measured=61
compound=NC(=O)c1cccc([C@H]2C[C@H]3CC[C@@H](C2)N3CCN(CC2CCC(F)(F)CC2)C(=O)CO)c1 uom=% value_measured=30
compound=CS(=O)(=O)CC(=O)N(CCN1[C@@H]2CC[C@H]1C[C@@H](c1cccc(C(N)=O)c1)C2)CC1CCCCC1 uom=% value_measured=60
compound=C[C@H]1CN(C[C@H](Cc2ccccc2)C(=O)O)CC[C@@]1(C)c1cccc(O)c1 uom=% value_measured=53

###

PROTOCOL_DESCRIPTION: Oral bioavailability in fasted female Beagle dog
Format: ADME, organism-based, Canis lupus familiaris
EXPERIMENTAL_SETUP: in vivo
PROPERTY: bioavailability (%)

molecule="NC(=O)c1cccc([C@H]2C[C@H]3CC[C@@H](C2)N3CCN(CC2CCCCC2)C(=O)[C@@H](O)CO)c1.O=S(=O)(O)O [AXELOPRAN SULFATE]" uom=% value_measured=29

###

PROTOCOL_DESCRIPTION: Half life in rat liver microsomes at 15 uM
Format: ADME, Microsome
PROPERTY: half-life at 15 µM (min)

compound=NC(=O)c1cccc([C@H]2C[C@H]3CC[C@@H](C2)N3CCN(CC2CCCCC2)C(=O)C(F)(F)F)c1 value_measured=3
compound=NC(=O)c1cccc([C@H]2C[C@H]3CC[C@@H](C2)N3CCN(CCCc2ccccc2)C(=O)CO)c1 value_measured=32
compound=NC(=O)c1cccc([C@H]2C[C@H]3CC[C@@H](C2)N3CCNCC2CCCCC2)c1 value_measured=42

###

// half-life at 3 µM lookup, one value per entry
PROTOCOL_DESCRIPTION: Half life in human liver microsomes at 3 uM
Format: ADME, Microsome
PROPERTY: half-life at 3 µM (h)

compound=COC(=O)N(CCN1[C@@H]2CC[C@H]1C[C@@H](c1cccc(C(N)=O)c1)C2)CC1CCCCC1 value_measured=0.117
compound=CCC(CC)CN(CCN1[C@@H]2CC[C@H]1C[C@@H](c1cccc(C(N)=O)c1)C2)C(=O)CO value_measured=1.5
compound=CS(=O)(=O)CC(=O)N(CCN1[C@@H]2CC[C@H]1C[C@@H](c1cccc(C(N)=O)c1)C2)CC1CCCCC1 value_measured=1.5
compound=NC(=O)c1cccc([C@H]2C[C@H]3CC[C@@H](C2)N3CCN(CC2CCCCC2)C(=O)Cc2nnn[nH]2)c1 value_measured=1.5
compound=NC(=O)c1cccc([C@H]2C[C@H]3CC[C@@H](C2)N3CCN(CC2CCCCC2)C(=O)CO)c1 value_measured=1.32

###

PROTOCOL_DESCRIPTION: Half life in dog liver microsomes at 3 uM
Assay type: ADME, Canis lupus familiaris, Microsome
Lab note: anything with half-life at 3 µM below 20 min is marked MET; values at 20 min or higher are marked NOT MET.

compound=CCC(CC)CN(CCCN1[C@@H]2CC[C@H]1C[C@@H](c1cccc(C(N)=O)c1)C2)C(=O)CO assigned_category="NOT MET"
compound=COC(=O)N(CCN1[C@@H]2CC[C@H]1C[C@@H](c1cccc(C(N)=O)c1)C2)CC1CCCCC1 assigned_category=MET
compound=CC(C)NC(=O)N(CCN1[C@@H]2CC[C@H]1C[C@@H](c1cccc(C(N)=O)c1)C2)CC1CCCCC1 assigned_category=MET
compound=CS(=O)(=O)CC(=O)N(CCN1[C@@H]2CC[C@H]1C[C@@H](c1cccc(C(N)=O)c1)C2)CC1CCCCC1 assigned_category="NOT MET"
compound=NC(=O)c1cccc([C@H]2C[C@H]3CC[C@@H](C2)N3CCN(CC2CCCCC2)C(=O)CO)c1 assigned_category=MET
compound=NC(=O)c1cccc([C@H]2C[C@H]3CC[C@@H](C2)N3CCN(CCc2ccccc2)C(=O)CO)c1 assigned_category="NOT MET"
compound=C[C@H]1CN(C[C@H](Cc2ccccc2)C(=O)O)CC[C@@]1(C)c1cccc(O)c1 assigned_category="NOT MET"
compound=NC(=O)c1cccc([C@H]2C[C@H]3CC[C@@H](C2)N3CCN(CC2CCCCC2)C(=O)c2ccco2)c1 assigned_category=MET

###

ASSAY_TARGET: Delta-type opioid receptor (Homo sapiens, UniProt P41143)
Sequence (P41143 whole entry): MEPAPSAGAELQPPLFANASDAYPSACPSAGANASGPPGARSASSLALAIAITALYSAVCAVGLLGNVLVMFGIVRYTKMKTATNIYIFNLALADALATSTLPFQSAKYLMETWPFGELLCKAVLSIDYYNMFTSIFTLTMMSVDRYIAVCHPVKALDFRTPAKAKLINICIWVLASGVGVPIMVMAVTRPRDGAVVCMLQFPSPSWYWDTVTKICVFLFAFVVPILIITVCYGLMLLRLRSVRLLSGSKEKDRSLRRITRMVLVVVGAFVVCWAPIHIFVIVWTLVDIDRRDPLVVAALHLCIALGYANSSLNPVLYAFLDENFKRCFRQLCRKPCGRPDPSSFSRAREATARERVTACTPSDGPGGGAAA
PROTOCOL_DESCRIPTION: Displacement of [3H]-DPN from recombinant human delta opioid receptor expressed in CHO-K1 cell membranes by radioligand binding assay
// Ki lookup, one value per entry
PROPERTY: Ki (nM)

compound=NC(=O)c1cccc([C@H]2C[C@H]3CC[C@@H](C2)N3CCN(CC2CCCCC2)C(=O)CO)c1 assay_target="Delta-type opioid receptor (Homo sapiens, UniProt P41143)" uom=nM value_measured=3.98
compound=CC(=O)N(CCN1[C@@H]2CC[C@H]1C[C@@H](c1cccc(C(N)=O)c1)C2)CC1CCCCC1 assay_target="Delta-type opioid receptor (Homo sapiens, UniProt P41143)" uom=nM value_measured=1.58
compound=CCC(CC)CN(CCN1[C@@H]2CC[C@H]1C[C@@H](c1cccc(C(N)=O)c1)C2)C(=O)CO assay_target="Delta-type opioid receptor (Homo sapiens, UniProt P41143)" uom=nM value_measured=12.6
compound=CCC(CC)CN(CCCCN1[C@@H]2CC[C@H]1C[C@@H](c1cccc(C(N)=O)c1)C2)C(=O)CO assay_target="Delta-type opioid receptor (Homo sapiens, UniProt P41143)" uom=nM value_measured=20

###

ASSAY_TARGET: UniProt:P35372
Sequence (P35372 whole entry): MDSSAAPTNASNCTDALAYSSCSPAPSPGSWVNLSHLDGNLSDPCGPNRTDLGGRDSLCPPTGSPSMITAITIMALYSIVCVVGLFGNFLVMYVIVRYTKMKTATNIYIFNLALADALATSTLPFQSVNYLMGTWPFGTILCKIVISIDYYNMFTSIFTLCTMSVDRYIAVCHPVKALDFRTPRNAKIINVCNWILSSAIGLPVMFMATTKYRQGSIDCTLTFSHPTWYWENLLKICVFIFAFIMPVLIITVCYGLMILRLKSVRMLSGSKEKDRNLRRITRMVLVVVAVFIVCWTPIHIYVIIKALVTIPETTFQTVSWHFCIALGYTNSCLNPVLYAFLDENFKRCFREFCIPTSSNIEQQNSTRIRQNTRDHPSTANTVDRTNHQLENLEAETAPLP
PROTOCOL_DESCRIPTION: Displacement of [3H]-DPN from recombinant human mu opioid receptor expressed in CHO-K1 cell membranes by radioligand binding assay
PROPERTY: Ki (nM)

compound=NC(=O)c1cccc([C@H]2C[C@H]3CC[C@@H](C2)N3CCN(CC2CCCCC2)C(=O)Cc2nnn[nH]2)c1 uom=nM value_measured=0.398
compound=CC(C)(C)C(=O)N(CCN1[C@@H]2CC[C@H]1C[C@@H](c1cccc(C(N)=O)c1)C2)CC1CCCCC1 uom=nM value_measured=0.126
compound=NC(=O)c1cccc([C@H]2C[C@H]3CC[C@@H](C2)N3CCN(CC2CCCCC2)C(=O)c2ccco2)c1 uom=nM value_measured=0.1
compound=NC(=O)c1cccc([C@H]2C[C@H]3CC[C@@H](C2)N3CCN(CC2CCCC2)C(=O)CO)c1 uom=nM value_measured=0.251

###

PROTOCOL_DESCRIPTION: Half life in rat liver microsomes at 3 uM
Type: ADME, Microsome
// half-life at 3 µM lookup, one value per entry
PROPERTY: half-life at 3 µM (min)

molecule=C[C@H]1CN(CCC(=O)O)CC[C@@]1(C)c1cccc(O)c1 uom=min op=> value_measured=90
molecule="C[N+]1(CC2CC2)CC[C@]23c4c5ccc(O)c4O[C@H]2C(=O)CC[C@@]3(O)[C@H]1C5.[Br-] (some centres not stated) [METHYLNALTREXONE BROMIDE]" uom=min op=> value_measured=90
molecule=C[C@H]1CN(C[C@H](Cc2ccccc2)C(=O)NCC(=O)O)CC[C@H]1c1cccc(O)c1 uom=min op=> value_measured=90
molecule=CS(=O)(=O)CC(=O)N(CCN1[C@@H]2CC[C@H]1C[C@@H](c1cccc(C(N)=O)c1)C2)CC1CCCCC1 uom=min op== value_measured=50
molecule="NC(=O)c1cccc([C@H]2C[C@H]3CC[C@@H](C2)N3CCN(CC2CCCCC2)C(=O)[C@@H](O)CO)c1.O=S(=O)(O)O [AXELOPRAN SULFATE]" uom=min op== value_measured=87
molecule=C[C@H]1CN(C[C@H](Cc2ccccc2)C(=O)O)CC[C@@]1(C)c1cccc(O)c1 uom=min op=> value_measured=90
molecule=CC(=O)N(CCN1[C@@H]2CC[C@H]1C[C@@H](c1cccc(C(N)=O)c1)C2)CC1CCCCC1 uom=min op== value_measured=74

###

PROTOCOL_DESCRIPTION: Half life in dog liver microsomes at 3 uM
Assay type: ADME, Canis lupus familiaris, Microsome
PROPERTY: half-life at 3 µM (h)

compound="C[N+]1(CC2CC2)CC[C@]23c4c5ccc(O)c4O[C@H]2C(=O)CC[C@@]3(O)[C@H]1C5.[Br-] (some centres not stated) [METHYLNALTREXONE BROMIDE]" uom=h op=> value_measured=1.5
compound=CCC(CC)CN(CCCCN1[C@@H]2CC[C@H]1C[C@@H](c1cccc(C(N)=O)c1)C2)C(=O)CO uom=h op== value_measured=1.5
compound=CCCCCCN(CCN1[C@@H]2CC[C@H]1C[C@@H](c1cccc(C(N)=O)c1)C2)C(=O)CO uom=h op== value_measured=0.183
compound=CN(C)S(=O)(=O)N(CCN1[C@@H]2CC[C@H]1C[C@@H](c1cccc(C(N)=O)c1)C2)CC1CCCCC1 uom=h op== value_measured=0.0833
compound=CCC(CC)CN(CCN1[C@@H]2CC[C@H]1C[C@@H](c1cccc(C(N)=O)c1)C2)C(=O)CO uom=h op== value_measured=1.25
compound=C[C@H]1CN(C[C@H](Cc2ccccc2)C(=O)NCC(=O)O)CC[C@H]1c1cccc(O)c1 uom=h op=> value_measured=1.5
compound=NC(=O)c1cccc([C@H]2C[C@H]3CC[C@@H](C2)N3CCN(Cc2ccccc2)C(=O)CO)c1 uom=h op== value_measured=1.5
compound=CCC(CC)CN(CCCCCN1[C@@H]2CC[C@H]1C[C@@H](c1cccc(C(N)=O)c1)C2)C(=O)CO uom=h op== value_measured=0.317
compound=NC(=O)c1cccc([C@H]2C[C@H]3CC[C@@H](C2)N3CCN(CC2CCC2)C(=O)CO)c1 uom=h op== value_measured=1.5
compound=NC(=O)c1cccc([C@H]2C[C@H]3CC[C@@H](C2)N3CCN(CC2CCOCC2)C(=O)CO)c1 uom=h op== value_measured=1.5
compound="NC(=O)c1cccc([C@H]2C[C@H]3CC[C@@H](C2)N3CCN(CC2CCCCC2)C(=O)[C@@H](O)CO)c1.O=S(=O)(O)O [AXELOPRAN SULFATE]" uom=h op== value_measured=0.45
compound=CCC(CC)CN(CCCCCCN1[C@@H]2CC[C@H]1C[C@@H](c1cccc(C(N)=O)c1)C2)C(=O)CO uom=h op== value_measured=0.15
